Listed here: items and their measured melting point.
Reported metric: melting point

                                   molecule  reported_metric  recorded_value
0    CC(=O)Oc1cc2nc[nH]c(=O)c2cc1OCc1ccccc1    melting point   231 to 233 °C
1  C=CC1CC2=C(CC=C(OC)C2)C2CCC3(C)C(=CCC3O)C12 (stereo not given)    melting point   129 to 136 °C
2  Clc1ccc(C(c2ccc(Cl)cc2)(c2nc[nH]n2)n2ccnc2)cc1    melting point   188 to 191 °C
3  CC(Cc1ccc(OCCO)cc1)NCC(O)c1ccccc1F (stereo not given)    melting point     80 to 95 °C
4  COC(=O)CC(CSc1ccc2ccccc2c1)C(=O)O (stereo not given)    melting point     97 to 99 °C
5  CCn1c(COCc2ccccc2)nc(C(C)C)c1Sc1cccc(F)c1    melting point     88 to 90 °C
6  CS(=O)(=O)Nc1ccc(-c2ccc(S(=O)(=O)n3ccc(C=CC(=O)NO)c3)cc2)cc1    melting point   160 to 167 °C
7  CN1CCc2cc(Cl)c(NC=O)cc2[C@@H](c2ccccc2)C1    melting point   135 to 136 °C
8       CC1(C)CC(Nc2nccc3ccccc23)CC(C)(C)N1    melting point          133 °C
9         C=CCOc1cccc2oc(C(=O)OCC)cc(=O)c12    melting point   122 to 123 °C

----------
Listed here: items and their measured melting point.
Reported metric: melting point

>>> df
                                    compound   recorded_value
 0  COc1nc(NCCc2ccc(F)cc2)nc(-c2ccc(OC)c(S(=O)(=O)NC3CC3)c2)n1    200 to 201 °C
 1  CC(C)(C)SC(=O)C=CC1C(C(=O)OC(C#N)c2ccc(F)c(Oc3ccccc3)c2)C1(C)C (stereo not given)            96 °C
 2       CCc1nnc(-c2ccc(O)cc2)n1-c1ccc(O)cc1    317 to 318 °C
 3  NC(=O)CNC(=O)c1cc(F)cc(-c2ccc(F)c3cc(Cc4cc(F)cc(Cl)c4)sc23)c1    192 to 194 °C
 4       CC1(C)C=C(c2ccccc2O)c2cc(C#N)ccc2O1    139 to 140 °C
 5  CC(=S)NCC1CN(c2ccc(-n3cnc(Cn4ccnc4)c3)c(F)c2)C(=O)O1 (stereo not given)    160 to 162 °C
 6     CCC=CCn1c(C)c(C)c2cnnc(OCc3ccccc3)c21      92 to 93 °C
 7  Cn1c(-c2ccc(N3CCOCC3)cc2)cnc1[C@H](Cc1ccccn1)N(C=O)c1cc2cc(Br)ccc2o1    173 to 174 °C
 8  CCCCC1c2sccc2CCN1CCNC(=O)c1ccc(NS(C)(=O)=O)cc1 (stereo not given)     98 to 105 °C
 9  CCCNCC(O)c1ccc(Br)cc1 (stereo not given)  72.5 to 74.5 °C
10        O=C1c2ccccc2-c2cc(O)cc3ccc(O)c1c23           280 °C
11   CCOC(=O)C(=O)N1CCN(c2ccccc2C(C)(C)C)CC1      95 to 98 °C
12       O=C(Sc1ccccc1)c1cc2cc(CCl)ccc2oc1=O    164 to 166 °C
13  CNC(=O)N1N=C(c2ccc([N+](=O)[O-])c(C)c2)c2cc(Cl)ccc2C=C1C    196 to 198 °C
14  CC1CCCC(Cc2c[nH]c3c(=O)[nH]c(N)nc23)C1 (stereo not given)           282 °C
15  CC(CCCc1ccccc1)Oc1cc(O)c2c(c1)CC(C)(C)CC2C(N)=O (stereo not given)    155 to 157 °C
16               Cc1cccc(NC(=O)N=C2CCCN2C)c1    137 to 142 °C
17  CC(C)(C)OC(=O)/C(=C/C1CCCCC1)C(=O)c1ccccc1O      62 to 65 °C
18  CC1(C)Oc2cc(CCc3ccccc3)cc(O)c2C2=CC(=O)CCC21 (stereo not given)    233 to 235 °C
19  C[C@@H](n1cnc2cc(-c3ccc([N+](=O)[O-])cc3)sc2c1=O)[C@](O)(Cn1cncn1)c1ccc(F)cc1F    272 to 273 °C

----------
Reported metric: melting point

>>> print(df.to_string())
                                   compound  reported_metric  recorded_value
0         Cc1ccc(CCc2cc(Br)c3nc(N)sc3c2)nc1    melting point   216 to 218 °C
1                COc1ccc2c(c1)nc(O)c1nncn12    melting point        > 250 °C
2  CC(C)C(C(=O)OCc1nn(Cc2ccccc2)c(=O)o1)c1ccc(Cl)cc1 (stereo not given)    melting point           70 °C
3  COc1c(OCCn2c([N+](=O)[O-])cnc2C)cnc(CNc2nc(C)nc(C)c2Cl)c1C    melting point   182 to 184 °C
4       NC(=O)Cc1c[nH]c2cc(OCc3ccccc3)ccc12    melting point   189 to 192 °C

----------
Listed here: items and their measured melting point.
Reported metric: melting point

>>> df
                                   molecule  reported_metric  recorded_value
0  CC(=O)OC1CC(n2cc(C=CBr)c(=O)[nH]c2=O)OC1C(O)F (stereo not given)    melting point           81 °C
1  CC(C)P1(=O)c2ccccc2CN1c1ccccc1 (stereo not given)    melting point   145 to 147 °C
2           N#CCCn1cc(C#N)c([N+](=O)[O-])n1    melting point   137 to 139 °C
3     CC(=O)c1cc2cc(OCC(=O)O)c(Cl)c(Cl)c2s1    melting point   203 to 205 °C
4  Cc1cc(NC(=O)C(C)(O)COc2ccc(CCCCl)cc2)ccc1[N+](=O)[O-] (stereo not given)    melting point   110 to 112 °C
5  CCNc1ccc(SSc2ccc(NCC)cc2C(=O)NC(C(=O)O)C(C)CC)c(C(=O)NC(C(=O)O)C(C)CC)c1 (stereo not given)    melting point    97 to 100 °C
6  COc1ccc(C2=C(CC(C)N(C)C(C)C)C(=O)NCCC2)cc1 (stereo not given)    melting point     86 to 88 °C
7                        CNc1cncc(C(=O)O)c1    melting point   239 to 242 °C
8  CCCCCC(c1ccc(OC)cc1OC)C(C(N)=O)c1cc(C(=O)O)ccc1C(C)(C)C (stereo not given)    melting point   153 to 154 °C
9  COc1ccc2c(c1)CCC(NC(C)=O)(C(=O)O)C2 (stereo not given)    melting point   252 to 254 °C

----------
Listed here: items and their measured melting point.
Reported metric: melting point

In [3]: df
Out[3]:
                                    molecule  reported_metric  recorded_value
 0  N#Cc1cc(NC(=O)c2cc3ccccc3s2)ccc1N1CCCCC1    melting point   219 to 245 °C
 1  O=C(NC(=O)c1ccccn1)NC1CN2CCC1CC2 (stereo unspecified)    melting point   202 to 203 °C
 2      Clc1cc(N2CCOCC2)nc(-n2cnc3ccccc32)n1    melting point   178 to 181 °C
 3                    C(=C\c1ccoc1)/c1ccccc1    melting point           96 °C
 4                    N#Cc1cc(C(F)(F)F)cnc1O    melting point   170 to 175 °C
 5  Fc1ccc(-c2cncc(CN3CCN(c4ncccn4)CC3)c2)cc1    melting point     97 to 98 °C
 6            CCN(CC)c1cccc(COc2ccc(N)nn2)c1    melting point   115 to 118 °C
 7                         C1CNCCNCCNCCNCCN1    melting point    92 to 103 °C
 8     O=c1nc(-c2cccc(-n3cccn3)n2)sc2ccccc12    melting point   253 to 254 °C
 9  CC(C)(C)[C@H]1N(c2ccc(C#N)c3ccccc23)C(=O)[C@@H]2C[C@@H](O)CN21    melting point   155 to 157 °C
10              CCCC(=O)Nc1ccc(-c2ccncc2)cc1    melting point   174 to 175 °C

----------
Listed here: items and their measured melting point.
Reported metric: melting point (°C)

>>> print(df.to_string())
                                     smiles  recorded_value
0  CSc1ccc(-c2nn(Cc3cccnc3)c(=O)cc2-c2ccc(Cl)cc2)cc1             148
1                Cc1cccc(C)c1NC(C)(C)C(=O)O             148
